experiment: chemical genetic growth profiling, strain panel (AID 1159580);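 further: tested at 20 µM; growth read once vehicle control cultures reached saturation at 30 °C; 1 = growth at the plate median or of vehicle wells; lower values mean less growth of the strain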; conditions: S. cerevisiae deletion strains, growth OD, locus YFL009W, strain cdc4, stronger effect = lower value
The whole screen tested about 5,500 compounds, of which about 2,000 (36%) were called active. Roughly 18% stayed inconclusive and do not appear here. The list shows a part of the results.
Result type: normalized growth
Numbers only.

Take a look at these entries with their results.
{"Compound": "COc1cccc(C(=O)C(C#N)=C(SC)SC)c1", "Result type": "normalized growth", "Measured result": 0.869}
{"Compound": "O=C1OC(Nc2ccccc2SCc2ccccc2Cl)c2ccccc21 (stereo unspecified)", "Result type": "normalized growth", "Measured result": 0.97}

List reported normalized growth for each of these compounds:
1. CCCCCc1ccc(S(=O)(=O)Nc2ncc(C)cc2Br)cc1
2. O=S(=O)(Nc1ccc(-n2nc(C(F)(F)F)cc2-c2cccs2)cc1)c1ccc(F)cc1
3. Cc1nn(Cc2cccc(C(=O)O/N=C(/N)c3ccc(Cl)cc3)c2)c(C)c1Br
4. COc1ccc(/C(C#N)=C2C=C/C(=N/O)C(Cl)=C\2)cc1
5. CC(C)(C)c1cc(C(=O)/C(C#N)=N\Nc2ccc(Cl)cc2)no1

0.957
0.991
0.965
0.962
0.907
